# test-method-notes: APR_HepG2_P-H2AX_24hr: Apredica 24-hour HepG2 Assay for H2AX Phosphorylation (AID 2282920)
# protocol-conditions: high-content imaging, actives raise or lower the signal
The source made the active and inactive calls. Rule for the calls: active = hit-call score of the fitted dose curve at least 0.9, where 1 is the maximum; inactive = score below 0.9.
Tick one outcome: TRUE (active), FALSE (inactive)

- molecule: "CC(=O)Nc1ccc(O)cc1"
  class-label: "FALSE"
- molecule: "OCC(CO)(CBr)CBr"
  class-label: "FALSE"

For the next question, use this molecule.
q: Just curious, what result did O=C(CCCN1CCC(O)(c2ccc(Cl)cc2)CC1)c1ccc(F)cc1 get here?
a: TRUE

====

# test-method-notes: CCTE_Shafer_MEA_dev_per_network_spike_spike_percent: CCTE's Neural Network Formation Assay for Percent of Spikes in a Network Spike, Shafer Lab (AID 2284054)
Activity calls are given as the source filed them. Rule for the calls: active = hit-call score of the fitted dose curve at least 0.9, where 1 is the maximum; inactive = score below 0.9.
Tick one outcome: class 1 = active, class 0 = inactive

The examples below pair each entry with its known result.
- molecule: "FC(F)=C(F)C(F)(F)C(F)(F)C(F)(F)C(F)F"
  class-label: "class 0"
- molecule: "O=C(O)CCC(F)(F)C(F)(F)C(F)(F)C(F)(F)C(F)(F)F"
  class-label: "class 0"
- molecule: "NC(C(F)(F)F)C(F)(F)F"
  class-label: "class 0"
- molecule: "C=CC(F)(F)C(F)(F)C(F)(F)C(F)(F)F"
  class-label: "class 0"
- molecule: "COC(=O)C(F)(F)C(F)(F)C(F)(F)F"
  class-label: "class 0"
- molecule: "CC(C)c1c(C(=O)Nc2ccccc2)c(-c2ccccc2)c(-c2ccc(F)cc2)n1CC[C@@H](O)C[C@@H](O)CC(=O)O"
  class-label: "class 1"
- molecule: "O=C(F)C(F)(F)C(F)(F)C(F)(F)C(=O)F"
  class-label: "class 0"
- molecule: "CN(Cc1cnc2nc(N)nc(N)c2n1)c1ccc(C(=O)N[C@@H](CCC(=O)O)C(=O)O)cc1"
  class-label: "class 1"

q: Just curious, what result did CN(CCO)S(=O)(=O)C(F)(F)C(F)(F)C(F)(F)C(F)(F)C(F)(F)C(F)(F)C(F)(F)C(F)(F)F get here?
a: class 0

q: Next up: O=CC(F)(F)C(F)(F)C(F)(F)C(F)F
a: class 0

q: Next up: O=C(F)C(F)(F)C(F)(F)C(F)(F)C(F)F
a: class 0

q: Next up: O=C(OC(=O)C(F)(F)C(F)(F)F)C(F)(F)C(F)(F)F
a: class 0

q: Next up: COC(=O)C(F)(F)C(F)(F)C(F)(F)C(F)(F)C(F)(F)F
a: class 0

q: Next up: O=C1NS(=O)(=O)c2ccccc21
a: class 0

q: Next up: FCOC(C(F)(F)F)C(F)(F)F
a: class 0

q: Next up: O=C(C=C(O)C(F)(F)F)C(F)(F)F
a: class 0

q: Next up: O=C(O)C(F)(F)OC(F)(F)C(F)(F)OC(F)(F)C(F)(F)OC(F)(F)C(F)(F)C(F)(F)C(F)(F)F
a: class 0

All figures here come from PubChem BioAssay (EPA / NIEHS).
